# tested_target: T1, cynomolgus NKp46 (cynomolgus monkey, UniProt Q95JB9 22-306)
# T1 construct: also called cyno NKp46; cynomolgus monkey NKp46
# T1 sequence (Q95JB9 22-306 limits assumed): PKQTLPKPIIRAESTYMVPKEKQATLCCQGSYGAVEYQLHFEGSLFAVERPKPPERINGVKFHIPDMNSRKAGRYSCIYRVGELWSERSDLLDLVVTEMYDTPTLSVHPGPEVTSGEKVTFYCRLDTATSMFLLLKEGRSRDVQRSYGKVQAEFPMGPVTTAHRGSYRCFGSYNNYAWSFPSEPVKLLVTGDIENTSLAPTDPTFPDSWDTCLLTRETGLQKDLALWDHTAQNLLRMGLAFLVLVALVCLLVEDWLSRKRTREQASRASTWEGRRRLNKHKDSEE
# assay_notes: flow cytometry, HEK293F cells transfected with cyno NKp46
Parameter: Bmax (MFI). Scope: all listed entries.
Record the value in MFI, omitting the unit from your answer.

[[record]]
binder = "NKp46-hz5D7v8-Fc* (Fc fusion, VHH-Fc fusion with an IgG1 Fc lacking a hinge (Fc*); also called NKp46-bz5D7v8-Fc*) EVQLVESGGGEVQPGGSLRLSCAASGRTFASAAMGWFRQAPGKEREFVAAISRSVGDTYYADSVKGRFTISRDNAKNTVYLQMSSLRAEDTAVYYCAAVVPTYGNNIYVHSAAYNYWGQGTLVTVKPGGGGPSVFLFPPKPKDTLMISRTPEVTCVVVDVSHEDPEVKFNWYVDGVEVHNAKTKPREEQYNSTYRVVSVLTVLHQDWLNGKEYKCKVSNKALPAPIEKTISKAKGQPREPQVYTLPPSRDELTKNQVSLTCLVKGFYPSDIAVEWESNGQPENNYKTTPPVLDSDGSFFLYSKLTVDKSRWQQGNVFSCSVMHEALHNHYTQKSLSLSPG"
unit_label = "MFI"
val = 53500


Now examine the next entry.
Please fill in: Bmax (MFI) reported for NKp46-5D7-Fc* (Fc fusion, VHH-Fc fusion with an IgG1 Fc lacking a hinge (Fc*); also called 5D7 VHH) QVTLRESGASLSLTCAASGRTFASAAMGWFRQAPGEEREFVAAISRSDDTYYADSVKGRFTISRDNAKNTVYLQMNSLKSEDTAVYYCAAVVPTYGNNIYVHSAAYNYWGQGTQVTVKPGGGGGPSVFLFPPKPKDTLMISRTPEVTCVVVDVSHEDPEVKFNWYVDGVEVHNAKTKPREEQYNSTYRVVSVLTVLHQDWLNGKEYKCKVSNKALPAPIEKTISKAKGQPREPQVYTLPPSRDELTKNQVSLTCLVKGFYPSDIAVEWESNGQPENNYKTTPPVLDSDGSFFLYSKLTVDKSRWQQGNVFSCSVMHEALHNHYTQKSLSLSPG = 58600
